System: complex I
Construct: gene NDUFV1; MitoTox Complex I OXPHOS Activity Microplate Assay (ab109903)
Assay name: complex I NADH:paraquat electron transfer, microplate activity assay (ubiquinone replaced by paraquat)
Assay type: biochemical, Bos taurus

[
  {
    "Compound": "[H]/N=C(/N)NCCCCCNC(=N)N [DG5]",
    "Units symbol": "mM",
    "IC50": 12
  }
]

---

System: complex I
Construct: gene NDUFV1; MitoTox Complex I OXPHOS Activity Microplate Assay (ab109903)
Assay name: complex I NADH:paraquat electron transfer, microplate activity assay (ubiquinone replaced by paraquat)
Assay type: biochemical, Bos taurus
Condition context: read-out: IC50

[
  {
    "Compound": "CN(C)C(=N)N=C(N)N [metformin]",
    "System": "complex I",
    "IC50 [mM]": 91
  }
]
